System: 293T-HRE-GFP-luc cells
MEASUREMENT NOTES: Cell-based reporter assay for IC50 determinations (HRE-luciferase, hypoxia)
STUDY CONDITIONS: 6 h, 6 hrs hypoxia (1% O2), luminescence
pIC50: −log10 of the molar value.
MEASURE: pIC50

COCCOc1cccc(Cn2cc(-c3noc(-c4cnc(N5CCOCC5)nc4)n3)ccc2=O)c1 [Example 242]	> 7.00
CN1CCN(c2cccc(Cn3cc(-c4noc(-c5ccc(OC(F)F)cc5)n4)ccc3=O)c2)CC1 [Example 189]	> 7.00
CN(C)C(=O)Cc1cccc(Cn2cc(-c3nc(-c4ccc(OC(F)(F)F)cc4)no3)ccc2=O)c1 [Example 157]	> 7.00
O=c1ccc(-c2nc(-c3ccc(OC(F)(F)F)cc3)no2)nn1Cc1ccc(F)c(Br)c1 [Example 108]	6.00 to 7.00
CCOC(=O)CN1CCN(c2cccc(Cn3cc(-c4nc(-c5ccc(OC(F)(F)F)cc5)no4)ccc3=O)c2)CC1=O [Example 183]	> 7.00
CS(=O)(=O)C1CCN(c2cccc(Cn3cc(-c4cc(-c5ccc(OC(F)(F)F)cc5)on4)ccc3=O)c2)CC1 [Example 99]	> 7.00
CN1CCN(c2cc(Cn3cc(-c4cc(-c5ccc(OC(F)(F)F)cc5)no4)ccc3=O)ccn2)CC1 [Example 97b]	> 7.00
COCCOc1cccc(Cn2cc(-c3noc(-c4cnc(SC)nc4)n3)ccc2=O)c1 [Example 86]	> 7.00

Q) Can you share its pIC50? I mean this compound: COCCOc1cccc(Cn2cc(-c3noc(-c4ccc(S(=O)(=O)CCOC)cc4)n3)ccc2=O)c1 [Example 237]
A) 6.00 to 7.00

Q) Can you share its pIC50? I mean this compound: O=C(Cc1cccc(Cn2nc(-c3nc(-c4ccc(OC(F)(F)F)cc4)no3)ccc2=O)c1)N1CCOCC1 [Example 142]
A) 6.00 to 7.00

Q) Can you share its pIC50? I mean this compound: Cc1cccc(Cn2cc(-c3nc(-c4ccc(OC(F)(F)F)cc4)no3)ccc2=O)c1 [Example 152]
A) > 7.00

Q) Can you share its pIC50? I mean this compound: CS(=O)(=O)CCCOc1cccc(Cn2cc(-c3noc(-c4ccc(N5CCOCC5)cc4)n3)ccc2=O)c1 [Example 204]
A) > 7.00

Q) Can you share its pIC50? I mean this compound: COC(=O)c1cccc(Cn2cc(-c3nc(-c4ccc(OC(F)(F)F)cc4)no3)ccc2=O)c1 [Example 107]
A) 6.00 to 7.00

* * *

Listed here: items and their measured IC50.
System: 293T-HRE-GFP-luc cells
MEASUREMENT NOTES: Cell-based reporter assay for IC50 determinations (HRE-luciferase, hypoxia)
STUDY CONDITIONS: 6 h, 6 hrs hypoxia (1% O2), luminescence

Record excerpt, results attached:
COCCOc1cccc(Cn2cc(-c3noc(-c4cnc(NC(C)(C)C)nc4)n3)ccc2=O)c1 [Example 249]	< 100 nM
NCCOc1cccc(Cn2cc(-c3nc(-c4ccc(OC(F)(F)F)cc4)no3)ccc2=O)c1 [Example 34]	< 100 nM
Cc1ccc(-c2nc(-c3ccc(OC(F)(F)F)cc3)no2)c(=O)n1Cc1cccc(S(N)(=O)=O)c1 [Example 268]	100 to 1000 nM

Q) Can you share its IC50? I mean this compound: NC(=O)c1cccc(Cn2nc(-c3nc(-c4ccc(OC(F)(F)F)cc4)no3)ccc2=O)c1 [Example 132]
A) < 100 nM

Provenance of the data: patent US20140073634A1
